Biological target: human PDE10A (UniProt Q9Y233)
Sequence (Q9Y233 290-1055 limits assumed): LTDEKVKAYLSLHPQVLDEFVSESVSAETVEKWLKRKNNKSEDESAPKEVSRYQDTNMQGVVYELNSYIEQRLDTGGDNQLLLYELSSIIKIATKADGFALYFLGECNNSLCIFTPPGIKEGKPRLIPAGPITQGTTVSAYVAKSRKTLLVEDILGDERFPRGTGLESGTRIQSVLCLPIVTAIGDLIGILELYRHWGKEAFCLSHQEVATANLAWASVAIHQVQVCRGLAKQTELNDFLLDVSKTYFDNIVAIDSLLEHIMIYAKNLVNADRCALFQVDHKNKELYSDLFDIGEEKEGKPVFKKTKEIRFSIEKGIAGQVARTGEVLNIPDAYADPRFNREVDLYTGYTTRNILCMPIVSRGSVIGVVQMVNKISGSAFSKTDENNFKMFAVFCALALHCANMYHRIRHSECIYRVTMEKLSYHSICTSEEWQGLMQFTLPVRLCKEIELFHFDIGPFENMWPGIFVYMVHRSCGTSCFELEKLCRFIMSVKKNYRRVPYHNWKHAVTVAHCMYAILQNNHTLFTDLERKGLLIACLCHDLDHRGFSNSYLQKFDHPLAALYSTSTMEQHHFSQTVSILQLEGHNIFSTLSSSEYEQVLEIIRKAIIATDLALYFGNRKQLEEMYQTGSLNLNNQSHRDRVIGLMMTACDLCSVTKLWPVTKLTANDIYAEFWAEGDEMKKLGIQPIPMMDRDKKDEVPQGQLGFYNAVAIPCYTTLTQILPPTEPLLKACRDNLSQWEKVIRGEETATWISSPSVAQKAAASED
Test: Measurement of PDE activity (recombinant enzyme, HTRF cAMP kit)
Format: biochemical
Conditions: Table 1, substrate 20 nM for PDE10, 60 minutes at 29 C, read-out: IC50
PROPERTY_NAME: IC50

As a guide, the following entries are already answered.
O=c1c2c(N3CCC(O)CC3)cccc2cnn1CCc1cn2ccccc2n1 [compound 341]    < 100 nM
O=c1c2c(-c3ccccc3F)csc2cnn1CCc1ccc2ccccc2n1 [Example 20]    < 100 nM
O=c1c2c(N3CCC(F)(F)CC3)cccc2ccn1C1CC1c1ccc2ccccc2n1 (single isomer, unassigned) [Example 260]    < 100 nM

Turning to the following molecule.
Give IC50 for O=c1c2c(-c3ccncc3)cccc2c(Br)nn1CCc1cn2ccccc2n1 [compound 370]
< 100 nM
